Sourced from PubChem BioAssay AID1963833

System: 883617-216-R-J1-PDC complex spheroid viability
PROTOCOL DETAILS: Anticancer human tumor 883617-216-R-J1-PDC patient-derived bladder carcinoma cell line growth inhibition [POLQ]
ASSAY SETUP: second compound 0.0316 µM; first compound 0.0316 µM; hits give low values
viability, T/C listing for selected molecules.
MEASURED QUANTITY: viability, T/C (%)

molecule="CCCS(=O)(=O)Nc1ccc(F)c(C(=O)c2c[nH]c3ncc(-c4ccc(Cl)cc4)cc23)c1F + Nc1ccc(C#CCN(C(=O)Cc2ncc(C(F)(F)F)cc2C(F)(F)F)c2ccc(F)cc2)nn1" measured_quantity="viability, T/C" measured_number=91.8
molecule="Nc1ccn(C2OC(CO)C(O)C2(F)F)c(=O)n1 (stereo not drawn) + COC1C(OC(N)=O)C(O)C(Oc2ccc3c(O)c(NC(=O)c4ccc(O)c(CC=C(C)C)c4)c(=O)oc3c2C)OC1(C)C" measured_quantity="viability, T/C" measured_number=25.9
molecule="CCc1c2c(nc3ccc(O)cc13)-c1cc3c(c(=O)n1C2)COC(=O)[C@]3(O)CC + COC1C(OC(N)=O)C(O)C(Oc2ccc3c(O)c(NC(=O)c4ccc(O)c(CC=C(C)C)c4)c(=O)oc3c2C)OC1(C)C" measured_quantity="viability, T/C" measured_number=67.5

----------
Below: a set of entries, each annotated with reported viability, T/C.
System: 883617-216-R-J1-PDC complex spheroid viability
PROTOCOL DETAILS: Anticancer human tumor 883617-216-R-J1-PDC cell line growth inhibition [POLQ];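 also: spheroids exposed to compounds for seven days before readout; 100% = DMSO vehicle control viability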
ASSAY SETUP: second compound 10 µM; first compound 10 µM; hits give low values
MEASURED QUANTITY: viability, T/C (%)

compound="CCc1cc2c(N3CCc4c(cc(Cn5ccnc5)cc4-c4cn(C)nc4C(F)(F)F)C3=O)ccnc2c(OC)n1 + COC1C(OC(N)=O)C(O)C(Oc2ccc3c(O)c(NC(=O)c4ccc(O)c(CC=C(C)C)c4)c(=O)oc3c2C)OC1(C)C" readout_units=% measured_number=57.8
compound="CNCc1ccc(-c2[nH]c3cc(F)cc4c3c2CCNC4=O)cc1 + Nc1ccc(C#CCN(C(=O)Cc2ncc(C(F)(F)F)cc2C(F)(F)F)c2ccc(F)cc2)nn1" readout_units=% measured_number=102
compound="CC(C)n1c(=O)n(C)c2cnc3cc(F)c(-c4ccc(OCCCN5CCCCC5)nc4)cc3c21 + Cc1cccc(N(C)C(=O)C2C(O)CCN2c2nc(C)cc(C(F)(F)F)c2C#N)c1" readout_units=% measured_number=63.4
compound="O=C(c1cc(Cc2n[nH]c(=O)c3ccccc23)ccc1F)N1CCN(C(=O)C2CC2)CC1 + COC1C(OC(N)=O)C(O)C(Oc2ccc3c(O)c(NC(=O)c4ccc(O)c(CC=C(C)C)c4)c(=O)oc3c2C)OC1(C)C" readout_units=% measured_number=74.5
compound="C=CC(=O)N1CCN(c2nc(=O)n(-c3c(C)ccnc3C(C)C)c3nc(-c4c(O)cccc4F)c(F)cc23)C(C)C1 (stereo not given) + Nc1ccc(C#CCN(C(=O)Cc2ncc(C(F)(F)F)cc2C(F)(F)F)c2ccc(F)cc2)nn1" readout_units=% measured_number=72.1

----------
Reported viability, T/C values for the following compounds.
System: 883617-216-R-J1-PDC complex spheroid viability
PROTOCOL DETAILS: Anticancer human tumor 883617-216-R-J1-PDC cell line growth inhibition [POLQ];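 also: spheroids exposed to compounds for seven days before readout; 100% = DMSO vehicle control viability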
ASSAY SETUP: second compound 1 µM; first compound 0.316 µM; hits give low values
MEASURED QUANTITY: viability, T/C (%)

compound="COc1cc2cc(C(=O)CCC(=O)O)sc2cc1OC + COC1C(OC(N)=O)C(O)C(Oc2ccc3c(O)c(NC(=O)c4ccc(O)c(CC=C(C)C)c4)c(=O)oc3c2C)OC1(C)C" system_tested="883617-216-R-J1-PDC complex spheroid viability" measured_quantity="viability, T/C" readout_units=% measured_number=86.4
compound="C#Cc1c(F)ccc2cc(O)cc(-c3ncc4c(N5CC6CCC(C5)N6)nc(OCC56CCCN5CC(F)C6)nc4c3F)c12 (stereo not given) + Cc1cccc(N(C)C(=O)C2C(O)CCN2c2nc(C)cc(C(F)(F)F)c2C#N)c1" system_tested="883617-216-R-J1-PDC complex spheroid viability" measured_quantity="viability, T/C" readout_units=% measured_number=106
compound="CC(C)n1c(=O)n(C)c2cnc3cc(F)c(-c4ccc(OCCCN5CCCCC5)nc4)cc3c21 + COC1C(OC(N)=O)C(O)C(Oc2ccc3c(O)c(NC(=O)c4ccc(O)c(CC=C(C)C)c4)c(=O)oc3c2C)OC1(C)C" system_tested="883617-216-R-J1-PDC complex spheroid viability" measured_quantity="viability, T/C" readout_units=% measured_number=108
compound="C=CCn1c(=O)c2cnc(Nc3ccc(N4CCN(C)CC4)cc3)nc2n1-c1cccc(C(C)(C)O)n1 + COC1C(OC(N)=O)C(O)C(Oc2ccc3c(O)c(NC(=O)c4ccc(O)c(CC=C(C)C)c4)c(=O)oc3c2C)OC1(C)C" system_tested="883617-216-R-J1-PDC complex spheroid viability" measured_quantity="viability, T/C" readout_units=% measured_number=92.2
compound="Nc1ccn(C2OC(CO)C(O)C2(F)F)c(=O)n1 (stereo not given) + Cc1cccc(N(C)C(=O)C2C(O)CCN2c2nc(C)cc(C(F)(F)F)c2C#N)c1" system_tested="883617-216-R-J1-PDC complex spheroid viability" measured_quantity="viability, T/C" readout_units=% measured_number=33.8
compound="COc1ccc([C@@H](O)c2cc(-c3ncnc4cc(N5CCOCC5)ccc34)c(F)cc2Cl)nn1 + Cc1cccc(N(C)C(=O)C2C(O)CCN2c2nc(C)cc(C(F)(F)F)c2C#N)c1" system_tested="883617-216-R-J1-PDC complex spheroid viability" measured_quantity="viability, T/C" readout_units=% measured_number=81.9
compound="CCc1c2c(nc3ccc(O)cc13)-c1cc3c(c(=O)n1C2)COC(=O)[C@]3(O)CC + Nc1ccc(C#CCN(C(=O)Cc2ncc(C(F)(F)F)cc2C(F)(F)F)c2ccc(F)cc2)nn1" system_tested="883617-216-R-J1-PDC complex spheroid viability" measured_quantity="viability, T/C" readout_units=% measured_number=40.1
compound="Nc1ccn(C2OC(CO)C(O)C2(F)F)c(=O)n1 (stereo not given) + COC1C(OC(N)=O)C(O)C(Oc2ccc3c(O)c(NC(=O)c4ccc(O)c(CC=C(C)C)c4)c(=O)oc3c2C)OC1(C)C" system_tested="883617-216-R-J1-PDC complex spheroid viability" measured_quantity="viability, T/C" readout_units=% measured_number=42.1
compound="CC1COCCN1c1cc(C2(O)CC3CCC(C2)O3)c2cnn(-c3ccn[nH]3)c2n1 (stereo not given) + COC1C(OC(N)=O)C(O)C(Oc2ccc3c(O)c(NC(=O)c4ccc(O)c(CC=C(C)C)c4)c(=O)oc3c2C)OC1(C)C" system_tested="883617-216-R-J1-PDC complex spheroid viability" measured_quantity="viability, T/C" readout_units=% measured_number=37.1
compound="COc1cccc2c1C(=O)c1c(O)c3c(c(O)c1C2=O)CC(O)(C(=O)CO)CC3OC1CC(N)C(O)C(C)O1 (stereo not given) + COC1C(OC(N)=O)C(O)C(Oc2ccc3c(O)c(NC(=O)c4ccc(O)c(CC=C(C)C)c4)c(=O)oc3c2C)OC1(C)C" system_tested="883617-216-R-J1-PDC complex spheroid viability" measured_quantity="viability, T/C" readout_units=% measured_number=45
compound="C=CCn1c(=O)c2cnc(Nc3ccc(N4CCN(C)CC4)cc3)nc2n1-c1cccc(C(C)(C)O)n1 + Cc1cccc(N(C)C(=O)C2C(O)CCN2c2nc(C)cc(C(F)(F)F)c2C#N)c1" system_tested="883617-216-R-J1-PDC complex spheroid viability" measured_quantity="viability, T/C" readout_units=% measured_number=81.9
compound="Nc1ccn(C2OC(CO)C(O)C2(F)F)c(=O)n1 (stereo not given) + Nc1ccc(C#CCN(C(=O)Cc2ncc(C(F)(F)F)cc2C(F)(F)F)c2ccc(F)cc2)nn1" system_tested="883617-216-R-J1-PDC complex spheroid viability" measured_quantity="viability, T/C" readout_units=% measured_number=45.2
compound="CCc1c2c(nc3ccc(O)cc13)-c1cc3c(c(=O)n1C2)COC(=O)[C@]3(O)CC + Cc1cccc(N(C)C(=O)C2C(O)CCN2c2nc(C)cc(C(F)(F)F)c2C#N)c1" system_tested="883617-216-R-J1-PDC complex spheroid viability" measured_quantity="viability, T/C" readout_units=% measured_number=33.6
compound="CCCS(=O)(=O)Nc1ccc(F)c(C(=O)c2c[nH]c3ncc(-c4ccc(Cl)cc4)cc23)c1F + COC1C(OC(N)=O)C(O)C(Oc2ccc3c(O)c(NC(=O)c4ccc(O)c(CC=C(C)C)c4)c(=O)oc3c2C)OC1(C)C" system_tested="883617-216-R-J1-PDC complex spheroid viability" measured_quantity="viability, T/C" readout_units=% measured_number=106
compound="O=C(Nc1ccc(O)c(NS(=O)(=O)c2ccc(F)cc2)c1)c1ccc(-c2ccccc2)cc1 + Cc1cccc(N(C)C(=O)C2C(O)CCN2c2nc(C)cc(C(F)(F)F)c2C#N)c1" system_tested="883617-216-R-J1-PDC complex spheroid viability" measured_quantity="viability, T/C" readout_units=% measured_number=99.1
compound="COc1cccc2c1C(=O)c1c(O)c3c(c(O)c1C2=O)CC(O)(C(=O)CO)CC3OC1CC(N)C(O)C(C)O1 (stereo not given) + Nc1ccc(C#CCN(C(=O)Cc2ncc(C(F)(F)F)cc2C(F)(F)F)c2ccc(F)cc2)nn1" system_tested="883617-216-R-J1-PDC complex spheroid viability" measured_quantity="viability, T/C" readout_units=% measured_number=59.7
compound="CCc1cc2c(N3CCc4c(cc(Cn5ccnc5)cc4-c4cn(C)nc4C(F)(F)F)C3=O)cc(C)nc2c(OC)n1 + Nc1ccc(C#CCN(C(=O)Cc2ncc(C(F)(F)F)cc2C(F)(F)F)c2ccc(F)cc2)nn1" system_tested="883617-216-R-J1-PDC complex spheroid viability" measured_quantity="viability, T/C" readout_units=% measured_number=94
compound="C#Cc1c(F)ccc2cc(O)cc(-c3ncc4c(N5CC6CCC(C5)N6)nc(OCC56CCCN5CC(F)C6)nc4c3F)c12 (stereo not given) + COC1C(OC(N)=O)C(O)C(Oc2ccc3c(O)c(NC(=O)c4ccc(O)c(CC=C(C)C)c4)c(=O)oc3c2C)OC1(C)C" system_tested="883617-216-R-J1-PDC complex spheroid viability" measured_quantity="viability, T/C" readout_units=% measured_number=83.8
compound="COc1cc2cc(C(=O)CCC(=O)O)sc2cc1OC + Nc1ccc(C#CCN(C(=O)Cc2ncc(C(F)(F)F)cc2C(F)(F)F)c2ccc(F)cc2)nn1" system_tested="883617-216-R-J1-PDC complex spheroid viability" measured_quantity="viability, T/C" readout_units=% measured_number=108
compound="CCCS(=O)(=O)Nc1ccc(F)c(C(=O)c2c[nH]c3ncc(-c4ccc(Cl)cc4)cc23)c1F + Nc1ccc(C#CCN(C(=O)Cc2ncc(C(F)(F)F)cc2C(F)(F)F)c2ccc(F)cc2)nn1" system_tested="883617-216-R-J1-PDC complex spheroid viability" measured_quantity="viability, T/C" readout_units=% measured_number=89.2
